- Assayed system: T1, A33 antigen (full-length human A33) (human, UniProt Q99795 22-319)
- T1 construct: Class I cell membrane protein of the Ig superfamily; also called GPA33; human A33 antigen
- T1 sequence: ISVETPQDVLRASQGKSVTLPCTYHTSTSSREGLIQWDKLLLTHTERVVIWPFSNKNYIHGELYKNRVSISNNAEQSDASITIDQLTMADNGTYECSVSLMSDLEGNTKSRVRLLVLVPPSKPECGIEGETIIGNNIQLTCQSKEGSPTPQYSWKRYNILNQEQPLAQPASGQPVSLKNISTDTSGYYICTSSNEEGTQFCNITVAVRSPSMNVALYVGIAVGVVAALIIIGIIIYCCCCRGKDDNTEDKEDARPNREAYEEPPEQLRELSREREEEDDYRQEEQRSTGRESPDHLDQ
- Protocol text: FCM on COLO205 cells; grade = ng/ml to reach half MFI 45 (+++ 10<=x<100, ++ 100<=x<1000, + 1000<=x<10000)
Listed next: entries and their corresponding antibody concentration required to reach half value of the mean fluorescence intensity.
Outcome measure: antibody concentration required to reach half value of the mean fluorescence intensity

Binder: recM10 (antibody, V domains shown, also called recM10 antibody; M10 recombinant antibody) VH: QLQVQESGPGLVKPSETLSLICTVSGGSIRTSGYYWGWFRQPPGKGLEWIGTSHNSGSTYYNPSLKSRVTISVDTSKNQFSLKLNSVTAADTAVYYCARQGYDFKVNIDVWGQGTTVTVSS VL: EIVLTQSPATLSLSPGERATLSCRASQSVSSYLAWYQQKPGQAPRLLIYDASNRATGIPARFSGSGSGTDFTLTISSLEPEDFAVYYCQQRSNWPLTFGGGTKVEIK
Recorded measurement: 10 to 100 ng/mL
--
Binder: recM165 (antibody, V domains shown, also called recM165 antibody; M165 recombinant antibody) VH: QVQLVESGGGVVQPGRSLRLSCAASGFTFSYYGMHWVRQAPGKGLEWVAVIWYDGSNKYYADSVKGRFTISRDNSKKTLYLQMNSLRAEDTAVYYCARDGHSSGWGDFQHWGQGTLVTVSS VL: EIVLTQSPATLSLSPGERATLSCRASQSVSSSLAWYQQKPGQAPRLLIYDASNRATGIPARFSGSGSGTDFTLTISSLEPEDFAIYYCQQRSNWPPTFGQGTKVEIK
Recorded measurement: 100 to 1000 ng/mL
--
Binder: chimeric anti-A33 antibody (antibody, V domains shown, Mouse variable regions with human IgG1 heavy chain and light chain constant regions (N5KG1-Val Lark vector); also called cA33; chimeric anti-A33 recombinant antibody) VH: EVKLVESGGGLVKPGGSLKLSCAASGFAFSTYDMSWVRQTPEKRLEWVATISSGGSYTYYLDSVKGRFTISRDSARNTLYLQMSSLRSEDTALYYCAPTTVVPFAYWGQGTLVTVSS VL: DIVMTQSQKFMSTSVGDRVSITCKASQNVRTVVAWYQQKPGQSPKTLIYLASNRHTGVPDRFTGSGSGTDFTLTISNVQSEDLADYFCLQHWSYPLTFGSGTKLEVK
Recorded measurement: 10 to 100 ng/mL
